assay_remarks: refractive index (Na D-line) (dimensionless); xn = mol fraction of the nth substance listed
condition_parameters: 318.15 K; 100.5 kPa; Liquid; Standard Abbe refractometry; x1 = 0.3
The entries below come with measured refractive index values attached.
Response field accepts a number only; no unit should be typed.

Input line: Reported refractive index for COC(=O)c1ccccc1 [methyl benzoate] + CCO : what is it?
Output line: 1.42643

Input line: # input molecule: CCC(=O)OCc1ccccc1 [benzyl propanoate] + CCO ; wanted: its refractive index
Output line: 1.425

Input line: // returns reported refractive index for input CCOC(=O)CC(C)C [ethyl 3-methylbutanoate] + CCO
Output line: 1.36884

Input line: Recorded refractive index of CCOC(=O)c1ccccc1O [ethyl 2-hydroxybenzoate] + CCO , please.
Output line: 1.43567

Input line: Requested read-out: refractive index. Entry: CC(=O)OCc1ccccc1 [benzyl ethanoate] + CCO
Output line: 1.42364

Input line: Sample CCOC(=O)CC(C)=O [ethyl 3-oxobutanoate] + CCO — what was its refractive index?
Output line: 1.379

====

assay_remarks: refractive index (Na D-line) (dimensionless); xn = mol fraction of the nth substance listed
condition_parameters: 288.15 K; 100.5 kPa; Liquid; Standard Abbe refractometry; x1 = 0.8
Numbers after ± are expanded uncertainties.
experimental_endpoint: refractive index

Some compounds with recorded refractive index:
Input line: What value of refractive index has been reported for the following compound? CCOC(=O)CC(C)=O [ethyl 3-oxobutanoate] + CCO
Output line: 1.4154 ± 0.0003

Input line: What value of refractive index has been recorded for this entry: CCOC(=O)c1ccccc1O [ethyl 2-hydroxybenzoate] + CCO
Output line: 1.51112 ± 0.00032

Input line: Endpoint output: refractive index of COC(=O)c1ccccc1 [methyl benzoate] + CCO . Value?
Output line: 1.50381 ± 0.00034

Input line: refractive index for CCC(=O)OCc1ccccc1 [benzyl propanoate] + CCO ?
Output line: 1.48877 ± 0.00033

Input line: Given CCOC(=O)CC(C)C [ethyl 3-methylbutanoate] + CCO , state its recorded refractive index.
Output line: 1.39559 ± 0.00035

Consider the record given below.
Input line: For the compound CC(=O)OCc1ccccc1 [benzyl ethanoate] + CCO , what refractive index is on record?
Output line: 1.49191 ± 0.00032

====

assay_remarks: xn = mol fraction of the nth substance listed
condition_parameters: 288.15 K, Wilhelmy plate method, x1 = 0.35
Reported surface tension liquid-gas is given for each of the following compounds.
Answer format: numeric, mN/m implied, no suffix.

Completed entries (count: 3):
Input line: Consider the compound shown here: CCOC(=O)c1ccccc1O [ethyl 2-hydroxybenzoate] + CCO What is its recorded surface tension liquid-gas?
Output line: 27.7

Input line: Name the recorded surface tension liquid-gas for CC(=O)OCc1ccccc1 [benzyl ethanoate] + CCO .
Output line: 28

Input line: Please give the measured surface tension liquid-gas for this compound: CCOC(=O)CC(C)=O [ethyl 3-oxobutanoate] + CCO
Output line: 26.78

---
Input line: // query surface tension liquid-gas value for entry CCC(=O)OCc1ccccc1 [benzyl propanoate] + CCO
Output line: 27.76

Input line: Look at this compound and give its reported surface tension liquid-gas. CCOC(=O)CC(C)C [ethyl 3-methylbutanoate] + CCO
Output line: 23.69

Input line: Could you tell me which surface tension liquid-gas is on file for COC(=O)c1ccccc1 [methyl benzoate] + CCO ?
Output line: 28.37
